# System: Z. tritici mitochondria
# Format: cell-based, Zymoseptoria tritici
MEASUREMENT NAME: EC50 on Z. tritici (mitochondrial fragmentation) (µg/mL)
// units = µg/mL; emit number, no label

CCCCCCCCCCCC[N+](CC)(CC)CC [C12-TEA+, dodecyltriethylammonium] = 2.38
CCCCCCCCCCCCNC(=N)N [C12-G+, dodecylguanidinium] = 6.63
CCCCCCCCCCCC[P+](c1ccccc1)(c1ccccc1)c1ccccc1 [C12-TPP+, dodecyltriphenylphosphonium] = 6.63
CCCCCCCCCCCC[S+](C)C [C12-DMS+, dodecyldimethylsulfonium] = 7.39

Now for a further molecule.
Query string: GET /values?readout=EC50 on Z. tritici (mitochondrial fragmentation)&item= CCCCCCCCCCCC[N+](C)(C)C [C12-TMA+, dodecyltrimethylammonium]
Result string: 3.85
